Can you tell me IC50 for the items I'm about to list?
Biological target: Metabotropic glutamate receptor 5 (Homo sapiens, UniProt P41594)
Sequence (P41594 whole entry): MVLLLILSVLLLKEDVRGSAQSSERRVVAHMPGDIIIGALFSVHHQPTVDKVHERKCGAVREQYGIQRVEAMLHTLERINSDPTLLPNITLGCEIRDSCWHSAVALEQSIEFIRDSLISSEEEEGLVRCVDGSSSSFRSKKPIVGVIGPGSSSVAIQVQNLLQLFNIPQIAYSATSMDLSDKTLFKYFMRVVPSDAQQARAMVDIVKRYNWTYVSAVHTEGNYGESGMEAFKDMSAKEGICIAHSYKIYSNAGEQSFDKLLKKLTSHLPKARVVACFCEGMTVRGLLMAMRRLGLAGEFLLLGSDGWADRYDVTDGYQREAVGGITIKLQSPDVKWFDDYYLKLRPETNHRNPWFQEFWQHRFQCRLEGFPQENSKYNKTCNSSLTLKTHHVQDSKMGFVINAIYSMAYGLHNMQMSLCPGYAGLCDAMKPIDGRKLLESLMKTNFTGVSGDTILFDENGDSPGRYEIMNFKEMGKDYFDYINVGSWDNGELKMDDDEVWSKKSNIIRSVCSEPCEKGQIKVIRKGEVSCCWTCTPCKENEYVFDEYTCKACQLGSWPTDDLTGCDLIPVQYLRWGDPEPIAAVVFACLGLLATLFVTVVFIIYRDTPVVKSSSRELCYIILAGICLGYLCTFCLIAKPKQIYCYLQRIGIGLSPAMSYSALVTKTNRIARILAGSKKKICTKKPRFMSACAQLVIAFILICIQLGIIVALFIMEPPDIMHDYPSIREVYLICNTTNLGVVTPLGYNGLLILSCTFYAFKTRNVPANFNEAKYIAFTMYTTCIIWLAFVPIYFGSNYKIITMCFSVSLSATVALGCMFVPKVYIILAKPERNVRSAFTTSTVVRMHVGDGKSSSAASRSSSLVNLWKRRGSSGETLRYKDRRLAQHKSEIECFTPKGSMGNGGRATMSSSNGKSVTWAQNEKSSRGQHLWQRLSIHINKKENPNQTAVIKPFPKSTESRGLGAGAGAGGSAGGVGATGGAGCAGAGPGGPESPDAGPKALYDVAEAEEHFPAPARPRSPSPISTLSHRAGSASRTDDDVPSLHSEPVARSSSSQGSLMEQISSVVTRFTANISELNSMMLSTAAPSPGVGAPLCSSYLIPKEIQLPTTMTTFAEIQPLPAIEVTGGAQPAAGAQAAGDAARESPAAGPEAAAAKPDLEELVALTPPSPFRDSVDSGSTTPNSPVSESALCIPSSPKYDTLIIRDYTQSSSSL
Assay: Negative allosteric modulation of human recombinant mGluR5 expressed in HEK293 cells assessed as L-glutamate-induced intracellular calcium mobilization incubated for 20 mins before L-glutamate addition

{"columns": ["lineNotation", "IC50"],
 "data": [
  ["O=C(c1cccc(F)c1)N1CCn2nc(-c3ccc(F)cn3)cc2C1", "257 nM"],
  ["O=C(c1cccc(Cl)c1)N1CCn2nc(-c3ccc(F)cn3)cc2C1", "150 nM"],
  ["N#Cc1cccc(C(=O)N2CCn3nc(-c4ccc(F)cn4)cc3C2)c1", "> 10000 nM"],
  ["O=C(c1ccccc1)N1CCn2nc(-c3ccccn3)cc2C1", "235 nM"],
  ["O=C(c1ccccc1)N1CCn2nc(-c3cccnc3)cc2C1", "> 10000 nM"]
]}

Give one value of IC50 per listed compound.
1. COc1cccc(C(=O)N2CCn3nc(-c4ccc(F)cn4)cc3C2)c1
2. Cc1cccnc1-c1cc2n(n1)CCN(C(=O)c1ccccc1)C2
3. Cc1cccc(C(=O)N2CCn3nc(-c4ccc(F)cn4)cc3C2)c1
4. O=C(c1ccccc1Cl)N1CCn2nc(-c3ccccn3)cc2C1
5. Cc1ccc(-c2cc3n(n2)CCN(C(=O)c2ccccc2)C3)nc1

Reply:
1. 482 nM
2. > 10000 nM
3. 150 nM
4. 2480 nM
5. 244 nM

Query: Form field - read-out: IC50; system: Metabotropic glutamate receptor 5 (Homo sapiens, UniProt P41594); submitted item: Cc1cc(F)cc(C(=O)N2CCn3nc(-c4ccc(F)cn4)cc3C2)c1
Reply: 197 nM
